- System: ACHN
- Experimental details: NCI tumour cell line growth inhibition, 48 h
Active and inactive are the calls of the source. Cut-off read from the data, not from the text of the source: active = GI50 up to about 1.1 µM and inactive = higher.
Outcome codes: true (1) = active, false (0) = inactive

molecule="O=C1CCC2CCc3cccc4oc1c2c34 (stereo unspecified)" qualitative_label="false (0)"
molecule="C=C(C)CC(C(=O)O)c1ccc(C)cc1 (stereo unspecified)" qualitative_label="false (0)"
molecule=CCN(CC)CCNc1ccc2nnn3c4ccc([N+](=O)[O-])cc4c(=O)c1c23 qualitative_label="false (0)"
molecule=Nc1ccc(C(=O)N/C(=C\c2cccc([N+](=O)[O-])c2)c2nc3c(O)nc(S)nc3[nH]2)cc1 qualitative_label="false (0)"
molecule=COCCCNc1c2ccccc2nc2ccccc12 qualitative_label="true (1)"
molecule=Cn1c(=N)n[n+]([O-])c2ccccc21 qualitative_label="false (0)"
molecule=Cc1ccc(S(=O)(=O)n2c(-c3ccccc3)c(-c3ccccc3)c3ccccc32)cc1 qualitative_label="false (0)"
molecule="CC(NC(=O)C(C)C(=O)Nc1ccc(C(F)(F)F)cc1)C(N)=O (stereo unspecified)" qualitative_label="false (0)"
molecule="COc1cc2c(cc1OC)[C@H]1C(COC(=O)c3ccccc3)CS/C(=N/c3ccccc3)N1CC2 (stereo partly specified)" qualitative_label="false (0)"
molecule=[N-]=[N+]=Nc1c(Cc2ccccc2)c(Cl)nc2ccccc12 qualitative_label="false (0)"
molecule="CC(C)CC(C#CCCOC(=O)c1ccccc1)OC(=O)c1ccccc1 (stereo unspecified)" qualitative_label="false (0)"

* * *

- System: OVCAR-3
- Experimental details: NCI tumour cell line growth inhibition, 48 h
The source made the active and inactive calls. Rule as the data show it: active = GI50 up to about 1.1 µM and inactive = higher.
Test readout: GI50

compound=C[C@]12C[C@H](O)[C@H]3[C@@H](CCC4=CC(=O)CC[C@@]43C)[C@@H]1CC[C@@H]2c1csc(-c2ccccc2)n1 system_tested=OVCAR-3 measured_value="> 22.4 µM (inactive)"
compound="CN(C)CC1CN/C(=N\\C(=O)Nc2ccccc2)O1 (stereo unspecified)" system_tested=OVCAR-3 measured_value="> 10 µM (inactive)"
compound=CCN(CC)c1ccc2cc(C(=O)Nc3ccc4[nH]c(C(=O)N5C[C@@H](CCl)c6c5cc(OC(=O)Nc5ccccc5)c5[nH]cc(C)c65)cc4c3)oc2c1 system_tested=OVCAR-3 measured_value="245 µM (inactive)"
compound=N#Cc1sc2nc3ccccc3n2c1N system_tested=OVCAR-3 measured_value="68.7 µM (inactive)"
compound=CCOC(=O)NC(=O)c1cn(CCNCCO)c(=O)[nH]c1=O system_tested=OVCAR-3 measured_value="> 100 µM (inactive)"
compound=O=C1N[C@@H]([C@H]2CC[C@H](Cl)CN2)C(=O)N[C@H]1[C@H]1CC[C@H](Cl)CN1 system_tested=OVCAR-3 measured_value="1.8 µM (inactive)"
compound=NC(C(F)(F)F)(C(F)(F)F)P(=O)(c1ccccc1)c1ccccc1 system_tested=OVCAR-3 measured_value="> 100 µM (inactive)"
compound=CC(=O)/C=C/c1c[nH]c(=O)[nH]c1=O system_tested=OVCAR-3 measured_value="180 µM (inactive)"
compound=CS(=O)(=O)c1nc(N)nc2nc[nH]c12 system_tested=OVCAR-3 measured_value="> 100 µM (inactive)"
compound=CCCCCCc1ccc(C(=O)NO)cc1 system_tested=OVCAR-3 measured_value="30.3 µM (inactive)"
compound="COC(=O)CC(c1ccccc1)C(C#N)(OP1(=O)OC(c2ccccc2)C(C)N1C)c1ccccc1 (stereo unspecified)" system_tested=OVCAR-3 measured_value="77.1 µM (inactive)"
compound=COc1ccc(/C(Cl)=C(/c2ccc(O)cc2)c2ccc(OCCN(C)C)cc2)cc1 system_tested=OVCAR-3 measured_value="15.3 µM (inactive)"
compound="C[C@@H]1CCC2C(C)(C)C(/C=C\\C=O)C3(C)OC213 (stereo partly specified)" system_tested=OVCAR-3 measured_value="33.4 µM (inactive)"
compound=Cc1cc(C)c2c(c1)C(=O)/C(=C/c1ccccc1C(=O)O)C2 system_tested=OVCAR-3 measured_value="22.5 µM (inactive)"
compound=C=C(C)C[C@H](Sc1nc2ccccc2s1)[C@H](C)O system_tested=OVCAR-3 measured_value="18.8 µM (inactive)"
compound="COc1ccc([S+]([O-])Cc2cc(OC)c(OC)c(OC)c2)cc1 (stereo unspecified)" system_tested=OVCAR-3 measured_value="57.8 µM (inactive)"
compound="Nc1ncnc2c1ncn2C1CCC(CP(=O)(O)O)C1 (stereo unspecified)" system_tested=OVCAR-3 measured_value="> 100 µM (inactive)"
compound=O=C(O)c1cc(-c2ccc3cc(O)c(O)cc3c2)ccc1O system_tested=OVCAR-3 measured_value="> 12.5 µM (inactive)"
compound="CN(C)c1ccc(C2ON=C(c3ccccc3)N2C23CC4CC(CC(C4)C2)C3)cc1 (stereo unspecified)" system_tested=OVCAR-3 measured_value="> 10 µM (inactive)"
compound=C=Cn1c([N+](=O)[O-])cnc1/C=C/c1ccc(C(=O)OCCN2CCOCC2)cc1 system_tested=OVCAR-3 measured_value="> 100 µM (inactive)"
compound="CCOC(=O)NC1C2CC(=O)C(O2)C1OCc1ccccc1 (stereo unspecified)" system_tested=OVCAR-3 measured_value="> 100 µM (inactive)"

* * *

Overview of reported GI50 across a group of molecules:
- Tested on: MDA-MB-435
- Experimental details: NCI tumour cell line growth inhibition, 48 h
The source made the active and inactive calls. Rule as the data show it: active = GI50 up to about 1.1 µM and inactive = higher.
Test readout: GI50

molecule=CO[C@]12C[C@@H](CNC(=O)c3cc(Br)c[nH]3)O[C@H]1NC(=O)N2 measured_value="> 100 µM (inactive)"
molecule="CCOC(=O)CCC(C(=O)OCC)n1nc2ccc(Nc3c(C)[n+]([O-])c4cc(F)c(OCC)cc4[n+]3[O-])cc2n1 (stereo not given)" measured_value="> 100 µM (inactive)"
molecule=O=C(COc1ccc(OCC(=O)N2C(=O)CN(c3ccccc3)C2=S)cc1)N1C(=O)CN(c2ccccc2)C1=S measured_value="> 55.3 µM (inactive)"
molecule=O=C(/C=C/c1ccc(O)c(O)c1)OCCCc1ccccc1 measured_value="9.44 µM (inactive)"
molecule="C1OCN2c3nonc3N3COCN4c5nonc5N1C2C43 (stereo not given)" measured_value="> 100 µM (inactive)"

* * *

- System: HOP-92
- Experimental details: NCI tumour cell line growth inhibition, 48 h
Activity calls are given as the source filed them. No stated cut-off is given here; in the data, active = GI50 up to about 1.1 µM and inactive = higher.
Test readout: GI50

compound="O=C1CC(Nc2ccccc2)c2c(Cl)sc(Cl)c21 (stereo unspecified)" measured_value="1.41 µM (inactive)"
compound=Cc1cccc2oc3c(CC(=O)O)cccc3c(=O)c12 measured_value="> 100 µM (inactive)"
compound=CCCCCc1nnc(NS(=O)(=O)c2ccc(NC(=O)OCC(C)C)cc2)s1 measured_value="24.1 µM (inactive)"
compound="CCOC(OC(C)=O)[C@@H]1C=C[C@H](C)N(c2ccc([N+](=O)[O-])cc2)O1 (stereo partly specified)" measured_value="6.25 µM (inactive)"
compound=N#Cc1nc(Nc2cccc3ccccc23)sc1N measured_value="21.1 µM (inactive)"
compound=COc1cc2c(/C=C3/C(=O)Nc4ccc(Cl)cc43)c(Cl)[nH]c2cc1C measured_value="10.6 µM (inactive)"

* * *

- Test system: HL-60
- Experimental details: NCI tumour cell line growth inhibition, 48 h
Calls of active or inactive are those of the source. No stated cut-off is given here; in the data, active = GI50 up to about 1.1 µM and inactive = higher.
Outcome codes: active, inactive

compound=CC1=C(C(=O)CC(=O)C(=O)Nc2cc(C)ccc2C)Sc2ccccc2N1 qualitative_label=inactive
compound="COC(=O)C1=CC2CCCC1(O)C(C(C)=O)C2 (stereo not given)" qualitative_label=inactive
compound=O=C1C=C(Nc2ccccc2C(=O)CC(=O)C(=O)Nc2ccc(Cl)cc2)c2ccccc2C1=O qualitative_label=inactive
compound="CNc1ncnc2c1ncn2C1C=CC(COS(N)(=O)=O)C1 (stereo not given)" qualitative_label=inactive
compound="O=[N+]([O-])C1=Cc2c(O)ccc(O)c2C2c3ccccc3NC12 (stereo not given)" qualitative_label=inactive
compound=CCc1cccc(C)c1NS(=O)(=O)c1ccccc1 qualitative_label=inactive
compound="COC(C)C(O)(C(=O)OCC1=CCN2CCC(O)C12)C(C)(C)O (stereo not given)" qualitative_label=inactive
compound="CCO[C@@]12CCC3CC4CC[C@@](OCC)(O1)C4C32 (stereo not given in full)" qualitative_label=inactive
compound=COC(=O)[C@@H]1[C@H](O)CC[C@H]2[C@@]1(C)CC[C@@H](C)[C@]2(COC(C)=O)CC(=O)c1ccoc1 qualitative_label=inactive
compound=O=C(c1ccccc1)c1nnc(C(=O)c2ccccc2)nn1 qualitative_label=inactive
compound=O=C(NC1CCCCC1)N1CCNC1=S qualitative_label=inactive
compound=NC(S)=Nc1cc(Cl)ccc1Cl qualitative_label=inactive
compound=CCCCCCCCCC(=O)CC(=O)c1c(O)cc(O)cc1O qualitative_label=inactive
compound="CCOC(=O)C1Sc2ccccc2N=C1C (stereo not given)" qualitative_label=inactive
compound=O=C1C=C(OCCCCl)C(=O)c2c(O)ccc(O)c21 qualitative_label=active
compound=CSc1ncnc2c1CCN2 qualitative_label=inactive
compound=COCCCNc1c2ccccc2nc2ccccc12 qualitative_label=inactive
compound="O=C1OC(CC(=O)c2ccc(Cl)cc2Cl)C(Cl)=C1Cl (stereo not given)" qualitative_label=inactive
compound="COC(=O)C(CCCCCCCC(C(=O)OC)C1=Nc2nnc(N)n2C1=O)C1=Nc2nnc(N)n2C1=O (stereo not given)" qualitative_label=inactive
compound=O=C(CCc1ccc(O)cc1)NCCc1ccc(O)cc1 qualitative_label=inactive
compound="COc1cc2c(cc1OC)C1[C@@H](c3ccccc3)OCN1CC2 (stereo not given in full)" qualitative_label=inactive
compound=CC(C)N1CN(c2ccccc2)C2(CCN(CCCC(=O)c3ccc(F)cc3)CC2)C1=O qualitative_label=inactive
compound=O=C1c2ccccc2C(=O)c2[nH]cnc21 qualitative_label=inactive
compound=CC(=O)c1c2c(cc3c1CC1(Cc4cc5c(cc4C1)CCCC5)C3)CCCC2 qualitative_label=inactive
compound="CC1C(c2ccccc2)=CCON1c1ccccc1 (stereo not given)" qualitative_label=inactive
compound="Nc1nc(=O)n(CC(O)CO)s1 (stereo not given)" qualitative_label=inactive
compound=C=C1C[C@@H]2O[C@H]3[C@H]4[C@@H](C[C@@H](C)[C@@H](OC(C)=O)[C@H]42)[C@@H](C)CO[C@@]3(C)[C@H](OC(=O)CCCCCCC)C[C@H]1O qualitative_label=inactive
compound=CCOC(=O)C(Cc1cn(S(=O)(=O)c2ccccc2)c2ccccc12)(NC(C)=O)C(=O)OCC qualitative_label=inactive
compound=CC(=O)NNc1nc(C)c(C(=O)/C=C/c2ccc(NC(C)=O)cc2)s1 qualitative_label=inactive
compound="CC1C2(C)OC(=N)C(C#N)(C(C)O2)C1(C#N)C#N (stereo not given)" qualitative_label=inactive
compound=Cc1cc(S(=O)(=O)Nc2nc(N)n(-c3cnc4ccccc4n3)n2)c(S)cc1Cl qualitative_label=inactive
compound=COc1ccc(Nc2ccc3ccccc3c2-c2c(O)ccc3ccccc23)cc1 qualitative_label=inactive
compound="CC1(O)/C(=N/O)CC2CC1C2(C)C (stereo not given)" qualitative_label=inactive
compound=COP(=O)(OC)/C(=C\c1cn(C(c2ccccc2)(c2ccccc2)c2ccccc2)cn1)NC(C)=O qualitative_label=inactive
compound="CN1C(c2ccccc2)CC(=O)C(N)C1c1ccccc1 (stereo not given)" qualitative_label=inactive
compound=Cc1ccc(/C=N/Nc2nncc3ccccc23)s1 qualitative_label=inactive
compound=c1ccc(-c2nc(-c3ccccc3)c(-c3ccccc3)[nH]2)cc1 qualitative_label=inactive
compound=c1nc2nc[nH]c(SSc3[nH]cnc4ncnc3-4)c-2n1 qualitative_label=inactive
compound="O=C1C2C3C=CC(C2C(=O)N1COP(=O)(O)O)C1C2C(=O)N(COP(=O)(O)O)C(=O)C2C31 (stereo not given)" qualitative_label=inactive
compound=N#Cc1cc([N+](=O)[O-])ccc1NC(=O)C(=O)Nc1n[nH]c(N)n1 qualitative_label=inactive
compound=O=C(O)CCSC(=O)Nc1cccc([N+](=O)[O-])c1 qualitative_label=inactive
compound="CC(NC(=O)C(C)C(=O)Nc1ccc(C(F)(F)F)cc1)C(N)=O (stereo not given)" qualitative_label=inactive
compound="CC1(C)CCC[C@@]2(C)C1CC[C@@]1(CO1)[C@@H]2/C=C\\C(C=O)CC=O (stereo not given in full)" qualitative_label=inactive
compound=CCCNC(=O)Cn1c2c(c3ccccc31)CCCC2 qualitative_label=inactive
compound="CC(=O)OC1c2ccccc2CCCCCCC12OCCO2 (stereo not given)" qualitative_label=inactive
